Below is a list of entries, each paired with its recorded growth value.
# System: CAKI-1 renal
# experiment notes: NCI-60 one-dose screen, 48 h (100 = growth as untreated, 0 = no growth, -100 = all killed)
# assay setup: 10 µM unless noted
This is part of a sample that, as a whole, favours compounds with a hit. Of some 83,000 tested, about 20% had one in any assay. Calls of active or inactive are those of the source. The calls were made as follows: active = growth percent below 10; inactive = the rest.
measured attribute: growth

1) COc1ccc(/C=N/NC(=O)c2ccc(-n3cc(-c4ccccc4)nn3)cc2)cc1OC 81% (inactive)
2) COc1ccc(C/C(C)=C(/c2ccc(OCCN(C)C)cc2)c2ccc(OC(=O)NCc3ccccc3)cc2)cc1 67.1% (inactive)
3) O=c1[nH]c(Cc2nc3ccccc3s2)nc2cc(Br)ccc12 58.7% (inactive)
4) CCCCNCCCCCNc1cc(OC)cc2cccnc12 114% (inactive)
5) Cc1cc(=O)oc2cc(OCc3nn4c(Nc5nc6ccccc6s5)c(-c5ccccc5)nc4s3)ccc12 79.5% (inactive)

###

# Test system: IGROV1 ovarian
# experiment notes: NCI-60 one-dose screen, 48 h (100 = growth as untreated, 0 = no growth, -100 = all killed)
# assay setup: 10 µM unless noted
This is part of a sample that, as a whole, favours compounds with a hit. Of some 83,000 tested, about 20% had one in any assay.
measured attribute: growth (%)

compound	recorded measurement
CCCCC1=C(P(=O)(O)O)N[C@H](C(=O)O)CS1	94.3
CCCC/C(CC)=N\NS(=O)(=O)c1ccc([N+](=O)[O-])cc1	105
COc1ccc2c(c1)c(-c1nc(-c3c[nH]c4ccncc34)cs1)cn2C	-83.8
CC(C)=CC(=O)OCC(=O)O[C@@H]1C[C@]2(C(C)C)O[C@@]1(C)[C@@H]1CC[C@@H](C)[C@H]1[C@@H]2OC(=O)/C=C/c1ccccc1	108
COc1ccc(-c2nn(-c3cccc(Cl)c3)cc2-c2cc(-c3ccc(Br)cc3)nc(N)n2)cc1	89.2
C=C1CC[C@@H]2[C@](C)(COC(C)=O)[C@H](OC(C)=O)CC[C@@]2(C)[C@@H]1CC(Nc1ccc(S(=O)(=O)Nc2ncccn2)cc1)C1=CCOC1=O (stereo partly drawn)	7.21
CS(=O)(=O)c1ccc(-c2cnn3ccc(-c4cccc(S(=O)(=O)C5CC5)c4)nc23)cc1	13.1
CCC(=O)Oc1ccc(-c2ccccc2)cc1Br	112
CN(c1cc2ncc(=O)[nH]c2cc1NC(N)=NCc1ccc(Cl)cc1)C1CCCCC1	61.6
Nc1nc2ccc(-c3nc4ccc5[nH]ncc5c4c4c3CCCC4)cc2s1	102
CCO/C=N/C1=C(C#N)C(c2ccc(Cl)cc2)c2sc3c(F)cccc3c2O1 (stereo not drawn)	60.7
N=C(N)c1ccc(-c2ccc(-c3ccc(Cl)cc3Cl)s2)cc1	-37.5
COc1ccc(OC)c(-c2nc(SCC(=O)c3ccc(C#N)cc3)[nH]c(=O)c2C#N)c1	96.4
Cn1cc(-c2csc(-c3c[nH]c4ccc(Br)cc34)n2)c2ccnc(Cl)c21	65.9
Nc1[nH]n2cc(-c3ccccc3)nc2c1N=Nc1ccc(S(N)(=O)=O)cc1	15.3
O=S(=O)(NCCNc1nccc(-c2c(-c3ccc(F)c(O)c3)nc3sccn23)n1)c1ccc(O)cc1	36.1
Cc1ccc(Nc2cc(N)nc(N)n2)cc1Cl	91
CCc1ccccc1-n1c(-c2ccc(OC)cc2)cc(-c2ccc(OC)cc2)c(C#N)c1=O	85.5
CCOC(=O)n1ccn(C)c1=S	110
CSc1nc2ccccc2cc1/C=C1/C=C(c2ccccc2)NC1=O	79.4
N#Cc1nc(-c2ccc(F)cc2)oc1S(=O)(=O)N1CCCCC1	59.6
COc1cc2ncnc(Nc3ccc(S(=O)(=O)Nc4cc(C)on4)cc3)c2cc1OCCCN1CCN(c2ccc(F)cc2)CC1	107
CC(C)c1ccc(C(=O)Nc2nc3ccc(O)c(CN(C)C)c3s2)cc1	80.7
CCOC(=O)c1c(NC(=O)c2ccc(Cl)cc2)sc2c(CN(C)C)c(O)ccc12	66.1
N#CC1=C(N)Oc2c(c(=O)[nH]c3ccc(Cl)cc23)C12C(=O)c1ccccc1C2=O	100
Cn1ccnc1C(=O)/C=C/c1ccc(C(=O)Nc2ccccc2O)cc1	30.9
COC(=O)[C@]12CCC(C)(C)C[C@H]1[C@H]1/C(=N/OCCc3nn[nH]n3)C[C@@H]3[C@@]4(C)CC[C@H](OC(C)=O)C(C)(C)[C@@H]4CC[C@@]3(C)[C@]1(C)CC2	30.9
COc1ccc(Nc2nc(-c3cc(O)c(C)c(C)c3O)cs2)cc1	66.5
c1ccc(Cn2cc3c(c2)-c2oncc2CC3)cc1	34.9
CS(=O)(=O)Nc1cc(-c2ccc3ncnc(Nc4ccc5c(cnn5Cc5ccc(F)cc5)c4)c3c2)cnc1Cl	-15.7
O=c1c2cccc3c(N4CCCC4)ccc(c32)c2nc3ccccc3n12	57.1
CCOC(=O)c1nn(-c2ccc(S(N)(=O)=O)cc2)c2nc(C)cc(=O)n12	98.7
O=C(Cn1cc(CSc2nc3ccccc3o2)nn1)Nc1ccc(F)cc1F	114
CC(C)=CCC[C@](C)(O)[C@H]1CC[C@]2(C)[C@@H]1CC[C@@H]1[C@@]3(C)C/C(=C/c4ccco4)C(=O)C(C)(C)[C@@H]3CC[C@]12C	107
NC(=O)CSc1oc(-c2ccccc2)nc1S(=O)(=O)c1ccc(Br)cc1	93
Cc1cc(=O)oc2cc(OCc3nn4c(Nc5nc6ccccc6s5)c(-c5ccccc5)nc4s3)ccc12	89.2
N#Cc1nc(-c2ccc(F)cc2)oc1S(=O)(=O)N1CCOCC1	78.3
O=S(=O)(Nc1ccc(F)cc1F)c1ccc(-c2cnc(C3CC3)o2)cc1	32.6

###

Below is a list of entries, each paired with its recorded growth value.
# System: LOX IMVI melanoma
# experiment notes: NCI-60 one-dose screen, 48 h (100 = growth as untreated, 0 = no growth, -100 = all killed)
# assay setup: 10 µM unless noted
# Description: Growth inhibition of the LOX IMVI human tumor cell line is measured as a screen for anti-cancer activity. Cells are grown in 96 well plates and exposed to the test compound for 48 hours. Compounds are tested at a single concentration, which is 10^-5 M for most compounds. The reported endpoint is percent growth (GI% or GIPRCNT), where numbers from 0 - 100% represent growth inhibition, and numbers from -100% - 0 represent cell death. For example, a value of 40 represents 60% growth inhibition. […]
This is part of a sample that, as a whole, favours compounds with a hit. Of some 83,000 tested, about 20% had one in any assay. Calls of active or inactive are those of the source. Rule for the calls: active = growth percent below 10; inactive = the rest.

compound	test system	growth
COc1ccc(-c2nc3c(ncc4ccc(=O)[nH]c43)s2)cc1	LOX IMVI melanoma	52% (inactive)
C#COc1cccc(Nc2c(C#N)cnc3ncc(NC(=O)CCl)cc23)c1	LOX IMVI melanoma	-2.95% [6.25 µM] (active)
COC1=CC(c2ccc[nH]2)=N/C1=C\c1[nH]c(C)c(C(=O)OC(C)C)c1C	LOX IMVI melanoma	-92.4% (active)
N#CC1=C(c2ccccc2)Nc2c(c(-c3ccc(Cl)cc3)nn2-c2ccccc2)C12C(=O)Nc1ccc(Cl)cc12 (stereo not given)	LOX IMVI melanoma	77.5% (inactive)
COc1ccc(C2=C(Br)C(=O)c3nc(C)ccc3C2=O)cc1	LOX IMVI melanoma	95.4% (inactive)

###

# System: A549/ATCC NSCLC
# experiment notes: NCI-60 one-dose screen, 48 h (100 = growth as untreated, 0 = no growth, -100 = all killed)
# assay setup: 10 µM unless noted
This is part of a sample that, as a whole, favours compounds with a hit. Of some 83,000 tested, about 20% had one in any assay.
Below is a list of entries, each paired with its recorded growth value.

compound	growth (%)
COc1ccc(-c2ccc(-c3ccc(C(=N)N)cc3)s2)cc1Cl	-48.2
NS(=O)(=O)c1ccccc1NC(=O)Nc1nc2ccccc2s1	101
N=C(N)c1ccc(-c2ccc(-c3ccccc3)o2)cc1	-30.1
CC(C)c1ccc(C(=O)Nc2nc3ccc(O)c(CN(C)C)c3s2)cc1	80.6
O=C1NC2(Nc3ccccc31)C(=O)Nc1c(Cl)cc(Cl)cc12 (stereo not given)	110
COc1ccc(/C=N\Nc2nc(SCCC(C)C)nc(-c3ccc(OC)cc3)c2C#N)cc1	70.9
COc1ccc2c(c1OC)CO[C@@H]2[C@H]1c2c(cc3c(c2OC)OCO3)CCN1S(=O)(=O)c1cn(C)cn1	21.2
Cn1c(=O)c2nc(/C=C/c3ccccc3)c(=O)[nH]c2n(C)c1=S	107
CCCCCCCCCCCCCCCCCCOc1ccccc1CC(=O)OCC[N+](C)(C)C	11.5
Cc1cc(N2CCN(CC(=O)Nc3ccc4c(ccn4C)c3)CC2)nc(N2CCCCCC2)n1	85.3

###

# Tested on: T-47D breast
# experiment notes: NCI-60 one-dose screen, 48 h (100 = growth as untreated, 0 = no growth, -100 = all killed)
# assay setup: 10 µM unless noted
Compounds without any hit were thinned out: in the full panel of roughly 83,000, 20% have a hit.

compound	growth / %
N#Cc1c(-c2ccccc2)cc(-c2ccccc2)n(CCCC(=O)Nc2ccccc2N)c1=O	64.1
O=C1C(Cl)=C(Nc2ccc(S(=O)(=O)N3CCOCC3)cc2)C(=O)c2ccccc21	69.8
COc1ccc(Cc2cnc(NC(=O)c3cc(C)oc3C)s2)cc1	31.8
COc1ccc(C(=O)c2cc3c(N)c(C(=O)Nc4ccc(C)cc4)sc3nc2C)cc1	46.6
C=C(CBr)[C@@H]1CC[C@]2(C(=O)O)CC[C@]3(C)[C@H](CC[C@@H]4[C@@]5(C)CCC(=O)C(C)(C)[C@@H]5CC[C@]43C)[C@@H]12	67.9
O=C1c2c(c3c4ccccc4[nH]c3c3ccc4ccccc4c23)C(=O)N1CCN1CCOCC1	18.6
C/C(Cc1ccc(Cl)cc1)=C(\c1ccc(O)cc1)c1ccc(Cl)cc1	82.1
COc1cc(-c2cncn2-c2ccc(-c3nc4ccc(F)cc4s3)cc2)ccc1F	76.3
CCC(=O)Oc1ccc(-c2ccccc2)cc1Br	101
CCOC(=O)n1ccn(C)c1=S	-28.3
CCc1ccc(CCCC(=O)O)cc1	98.8
O=C1C(=O)N(Cc2ccc(-c3ccccc3)cc2)c2ccc(OC(F)(F)F)cc21	49.7
O=c1scc(-c2ccc(C(F)(F)F)cc2)s1	95.6
COc1ccc(C(=O)C/C(=C\c2ccc(Cl)cc2)C(=O)NCc2ccccc2)cc1	65.3
Nc1c(C(=O)Nc2ccncc2)sc2nc3c(cc12)C(O)CCC3 (stereo unspecified)	74.3
O=C(CN1CCOCC1)Nc1nc(-c2cc3ccccc3oc2=O)cs1	111
COc1c(B(O)O)cccc1-c1cc(C)c2c(ccc3[nH]ncc32)n1	84.1
CCOC(=O)c1ccc(NC(=O)c2nc(-c3cc(OC)c(OC)c(OC)c3)n(-c3ccc(Cl)cc3)n2)cc1	77.6
O=C(CSc1nc2sc3c(c2c(=O)n1-c1ccccc1)CCCCC3)N/N=C/c1cccc([N+](=O)[O-])c1	64.1
Clc1cccc(Nc2ncnc3ccc(-c4cnc5[nH]ccc5c4)cc23)c1	28.3
COc1c(B(O)O)cccc1-c1nc2c(F)cc3[nH]ncc3c2c2c1CCCC2	8.61

This collection of values is drawn from PubChem BioAssay (NCI).
